System: T. brucei BSF s427 wildtype cells
Experiment: Growth assays of T. brucei (trypanocidal/trypanostatic effect)
Assay type: cell-based, Trypanosoma brucei
Conditions: 2xEC50, 8 h, experiment 1
For each entry below, report its AVG of cells/mL value.
Give bare numbers, in cells/mL.

Use the examples below as a reference point.
Nc1ncnc2c1c(Br)cn2[C@@H]1O[C@H](CO)C[C@H]1O :: 183750
Nc1ncnc2c1ccn2[C@@H]1O[C@H](CO)C[C@H]1O :: 167500
Nc1ncnc2c1ncn2[C@@H]1O[C@H](CO)C[C@H]1O [Compound 3, cordycepin, reference compound] :: 187500

Quick note, AVG of cells/mL for "Nc1ncnc2c1c(Br)cn2[C@@H]1O[C@H](CO)[C@@H](O)[C@H]1O" landed at 175000

====

For each entry below, report its EC50 value.
System: T. b. brucei Lister 427WT
Test: Drug susceptibility test (resazurin), Lister 427WT
Type: cell-based, Trypanosoma brucei brucei
Settings: Trypanosoma brucei, mean and SEM, n = 3; read-out: Lister 427 EC50
One number for each entry, in nM.

Use the examples below as a reference point.
Nc1ncnc2c1ccn2[C@@H]1O[C@H](CO)C[C@H]1O :: 33
Nc1ncnc2c1c(Br)cn2[C@H]1C[C@H](O)[C@@H](CO)O1 :: 310
N=C(N)c1ccc(/N=N/Nc2ccc(C(=N)N)cc2)cc1 [Diminazene, reference compound] :: 420
Nc1ncnc2c1c(Br)cn2[C@@H]1O[C@H](CO)C[C@H]1O :: 1.8
Nc1ncnc2c1ccn2[C@H]1C[C@H](O)[C@@H](CO)O1 :: 96400

For each of the molecules below, state EC50.
1. Nc1ncnc2c1ccn2[C@@H]1O[C@H](CO)[C@@H](O)[C@H]1O [Compound 6, Tubercidin, reference compound]
2. N=C(N)c1ccc(OCCCCCOc2ccc(C(=N)N)cc2)cc1 [Pentamidine, reference compound]

result:
1: 150; 2: 11

====

Tested on: Lister 427WT T. b. brucei
Assay: Adenosine deaminase susceptibility (drug sensitivity with/without 2 µM deoxycoformycin)
Format: cell-based, Trypanosoma brucei brucei
Settings: Trypanosoma brucei, DCF -; single replicate; read-out: EC50
readout.kind: EC50 (nM)
Numbers only, in nM.

Quick note, EC50 for "Nc1ncnc2c1ccn2[C@@H]1O[C@H](CO)[C@@H](O)[C@H]1O" landed at 194

====

Test system: T. brucei NY-SM cells
Experiment: Susceptibility assay, NY-SM cells
Format: cell-based, Trypanosoma brucei brucei
Settings: Trypanosoma brucei, single determinations; read-out: IC50, NYsm
readout.kind: IC50 (nM)
Answers are plain numbers, in nM.

Quick note, IC50 for Nc1ncnc2c1ccn2[C@@H]1O[C@H](CO)C[C@H]1O [Compound 9, 3’-deoxytubercidin] landed at 5.2

====

For each entry below, report its pEC50 value.
Tested on: ISMR1: isometamidium-resistant T. brucei cell line
Assay: microbe, parasite or virus in culture
Type: cell-based, Trypanosoma brucei brucei
Details: Trypanosoma brucei, source data; read-out: ISMR1 EC50, AVG
Give bare numbers, as −log10 of the molar value.

Nc1ncnc2c1c(Br)cn2[C@H]1C[C@H](O)[C@@H](CO)O1 :: 6.04
Nc1ncnc2c1c(-c1ccccn1)cn2[C@@H]1O[C@H](CO)[C@@H](O)[C@H]1O :: 6.36
Nc1ncnc2c1c(Br)cn2[C@@H]1O[C@H](CO)C[C@H]1O :: 8.95

Quick note, pEC50 for CC[n+]1c(-c2ccccc2)c2cc(N/N=N/c3cccc(C(=N)N)c3)ccc2c2ccc(N)cc21 [Isometamidium, reference compound] landed at 5.30
